Cited source: the Human Domainome abundance scans (Beltran et al. 2025)

B1: POU domain, class 3, transcription factor 1, residues 247 to 324; numbered along this chain, Q03052 (parent)
chain: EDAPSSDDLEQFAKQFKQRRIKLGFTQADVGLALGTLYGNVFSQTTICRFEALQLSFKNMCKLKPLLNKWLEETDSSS

Variants of: B1
Experiment: abundance fitness (aPCA) (normalised: wild type 0, dead -1); higher = more abundant; growth selection in yeast, the domain comes from the species named
Settings: Homo sapiens
quantity-kind: abundance fitness

sequence_variant=K69Y endpoint_result=-0.159
sequence_variant=L32I endpoint_result=0.163
sequence_variant=L67R endpoint_result=-0.716
sequence_variant=K22V endpoint_result=-0.428
sequence_variant=P65H endpoint_result=-0.173
sequence_variant=N68K endpoint_result=0.007
sequence_variant=T46R endpoint_result=-0.509
sequence_variant=G39L endpoint_result=-0.751
sequence_variant=P65L endpoint_result=-0.284
sequence_variant=G24T endpoint_result=-0.805
sequence_variant=S77T endpoint_result=0.061
sequence_variant=I47D endpoint_result=-1.24
sequence_variant=M60Y endpoint_result=0.109
sequence_variant=K22H endpoint_result=0.068
sequence_variant=T46L endpoint_result=-0.279
sequence_variant=M60Q endpoint_result=-1.05
sequence_variant=F50G endpoint_result=-0.736
sequence_variant=P65A endpoint_result=-0.241
sequence_variant=S43K endpoint_result=-0.234
sequence_variant=C61T endpoint_result=-0.384
sequence_variant=K62F endpoint_result=-0.278
sequence_variant=C61A endpoint_result=-0.001
sequence_variant=K69W endpoint_result=-0.671
sequence_variant=N68D endpoint_result=-0.071
sequence_variant=F25N endpoint_result=-0.531
sequence_variant=I21P endpoint_result=-1.18
sequence_variant=L32G endpoint_result=-0.372
sequence_variant=R20E endpoint_result=-0.845
sequence_variant=L32M endpoint_result=-0.039
sequence_variant=T45E endpoint_result=0.185
sequence_variant=E51I endpoint_result=-0.818
sequence_variant=S77D endpoint_result=0.036
sequence_variant=F42G endpoint_result=-0.594
sequence_variant=L55P endpoint_result=-0.867
sequence_variant=L23M endpoint_result=0.124
sequence_variant=F50K endpoint_result=-0.903
sequence_variant=M60P endpoint_result=-1.18
sequence_variant=E73L endpoint_result=-0.018
sequence_variant=G31E endpoint_result=-0.18
sequence_variant=Q27D endpoint_result=-0.836
sequence_variant=F25C endpoint_result=-0.217
sequence_variant=T74W endpoint_result=-0.224
sequence_variant=D75M endpoint_result=-0.4
sequence_variant=E51Y endpoint_result=-0.899
sequence_variant=G35S endpoint_result=0.064
sequence_variant=F50L endpoint_result=-0.718
